Quick reference for inhibition at 10 µM among some compounds
target: hNav1.1 (SCN1A) (Homo sapiens); assay: Use-dependent inhibition of the CNS Nav1.1 sodium channel; format: cell-based; conditions: use-dependent block, 25 Hz, pulse 20, read-out: Nav1.1 UDB 25 Hz 10 uM
parameter: inhibition at 10 µM (%)

>>> endpoint_value("CC(C)n1ccnc1COc1noc2ccc(-c3ccc(OC(F)(F)F)cc3)cc12")
52.8
>>> endpoint_value("Cc1cc(-c2ccc(OC(F)(F)F)cc2)cc2c(OCc3ncco3)noc12")
31.1
>>> endpoint_value("Cc1cc(-c2ccc(OC(F)(F)F)cc2)cc2c(OCCN3CCCC3=O)noc12")
66.7
>>> endpoint_value("COc1ccnc(CNc2noc3ccc(-c4ccc(OC(F)(F)F)cc4)cc23)n1")
50
>>> endpoint_value("C[C@H](COc1noc2ccc(-c3ccc(OC(F)(F)F)cc3)cc12)N1CCCC1=O")
56.3
>>> endpoint_value("CC(C)[C@H](N)COc1noc2ccc(-c3ccc(OC(F)(F)F)cc3)cc12")
89.4
>>> endpoint_value("CC(C)c1nccn1-c1noc2ccc(-c3ccc(OC(F)(F)F)cc3)cc12")
73.2
>>> endpoint_value("COc1cc(-c2ccc(OC(F)(F)F)cc2)cc2c(OCc3ncccn3)noc12")
28.1
>>> endpoint_value("O=C1CC(COc2noc3ccc(-c4ccc(OC(F)(F)F)cc4)cc23)CN1 (stereo not shown)")
78.4
>>> endpoint_value("Cc1cc2onc(OCc3ncccn3)c2cc1-c1ccc(OC(F)(F)F)cc1")
58.6
>>> endpoint_value("Cn1cc(COc2noc3ccc(-c4ccc(OC(F)(F)F)cc4)cc23)nn1")
21.1
>>> endpoint_value("FC(F)(F)Oc1ccc(-c2ccc3onc(NCc4ncco4)c3c2)cc1")
26.5
>>> endpoint_value("CC(C)(C)c1cn(-c2noc3ccc(-c4ccc(OC(F)(F)F)cc4)cc23)cn1")
66.6
>>> endpoint_value("Cc1cnc(COc2noc3ccc(-c4ccc(OC(F)(F)F)cc4)cc23)cn1")
10.1
>>> endpoint_value("Cc1ncn(-c2noc3ccc(-c4ccc(OC(F)(F)F)cc4)cc23)n1")
31.5
>>> endpoint_value("O=C1NCC[C@H]1Oc1noc2ccc(-c3ccc(OC(F)(F)F)cc3)cc12")
78.1
>>> endpoint_value("CN1CC(COc2noc3ccc(-c4ccc(OC(F)(F)F)cc4)cc23)CC1=O (stereo not shown)")
83.6
>>> endpoint_value("FC(F)(F)Oc1ccc(-c2ccc3onc(NCCn4cncn4)c3c2)cc1")
82.6
>>> endpoint_value("COc1cc2onc(OCc3ncccn3)c2cc1-c1ccc(OC(F)(F)F)c(C)c1")
34.5
>>> endpoint_value("CC(=O)N1CCOC[C@@H]1COc1noc2ccc(-c3ccc(OC(F)(F)F)cc3)cc12")
70.4
>>> endpoint_value("FC(F)(F)Oc1ccc(-c2ccc3onc(OCc4nccn4-c4ccccc4)c3c2)cc1")
33.2
>>> endpoint_value("Cc1nc(C)n(C(C)COc2noc3ccc(-c4ccc(OC(F)(F)F)cc4)cc23)n1 (stereo not shown)")
36.8
>>> endpoint_value("OCC1(COc2noc3ccc(-c4ccc(OC(F)(F)F)cc4)cc23)COC1")
46.3
>>> endpoint_value("CCn1ccnc1COc1noc2ccc(-c3ccc(OC(F)(F)F)cc3)cc12")
55.5
>>> endpoint_value("Cc1cc(-c2ccc(OC(F)(F)F)cc2)cc2c(OCc3nnc(C4CC4)o3)noc12")
75.7
>>> endpoint_value("Cc1cc(-c2ccc(OC(F)(F)F)cc2)cc2c(OCc3cn(C)nn3)noc12")
90.8

These measurements were taken from patent US9416115B2.
